Below is a list of entries, each paired with its recorded IC50 value.
# Tested on: HeLa
# protocol notes: Cytotoxicity against human HeLa cells assessed as reduction in cell viability after 24 hrs by resazurin dye based assay
# Assay type: functional
Provide only the numeric value, understood in µg/mL.

compound=C[C@H]1O[C@H](O[C@H]2CC[C@H](n3ccc(NC(=O)c4ccc(N)cc4)nc3=O)O[C@@H]2C)[C@H](O)[C@@H](O)[C@@H]1N(C)C value_unit=µg/mL recorded_measurement=16

Please report the recorded IC50 for CC(=O)C(C)Nc1ccc(C(=O)Nc2ccn([C@H]3CC[C@H](O[C@H]4O[C@H](C)[C@@H](N(C)C)[C@H](O)[C@H]4O)[C@@H](C)O3)c(=O)n2)cc1 (some centres undefined) .
16

Please report the recorded IC50 for CS/C=C/C(=O)Nc1ccn([C@H]2CC[C@H](O[C@H]3O[C@H](C)[C@@H](N(C)C)[C@H](O)[C@H]3O)[C@@H](C)O2)c(=O)n1 .
1

Please report the recorded IC50 for CC(C)=CC(=O)Nc1ccn([C@H]2CC[C@H](O[C@H]3O[C@H](C)[C@@H](N(C)C)[C@H](O)[C@H]3O)[C@@H](C)O2)c(=O)n1 .
2
